Tested on: Echinochloa crus-galli
Assay: Test Example 1: herbicidal effect test by soil treatment in paddy field
Format: in vivo
Conditions: 120 g/10a, paddy soil treatment just after sowing, 14 days after treatment
EXPERIMENTAL READOUT: weed suppression rate, Echinochloa crus-galli (%)

# COMPOUND, READOUT NUMBER
rows = [
    ("CC(C)N(C(=O)n1ncn(S(=O)(=O)c2cccs2)c1=O)c1ccc(F)cc1", 90),
    ("CC(C)N(C(=O)n1ncn(S(=O)(=O)C2CC2)c1=O)c1ccc(Cl)cn1", 100),
    ("CC(C)N(C(=O)n1ncn(S(=O)(=O)C(C)C)c1=O)c1cccnc1F [Compound 1-90]", 100),
    ("CC(C)N(C(=O)n1ncn(S(=O)(=O)c2cccs2)c1=O)c1ccc(F)cc1F", 90),
    ("CC(C)N(C(=O)n1ncn(S(=O)(=O)C2CC2)c1=O)c1ccc(Br)cc1Cl", 100),
    ("CC(C)N(C(=O)n1ncn(S(=O)(=O)N(C)C)c1=O)c1ccc(Cl)nc1", 90),
    ("C=CS(=O)(=O)n1cnn(C(=O)N(c2ccc(F)cc2F)C(C)C)c1=O", 100),
    ("CC(C)N(C(=O)n1ncn(S(=O)(=O)C2CCCCC2)c1=O)c1ccc(Cl)nc1", 100),
]

###

System: Lindernia pyxidaria
Assay: Test Example 12: herbicidal effect test by treatment during growing period in paddy field
Assay type: in vivo
Details: 120 g/10a; treatment seven days after sowing in flooded paddy pot; assessed 14 days after treatment
EXPERIMENTAL READOUT: Weed suppression rate (%) Lindemia pyxidaria

# COMPOUND, READOUT NUMBER
data = [
    ("CC(C)N(C(=O)n1cnn(S(=O)(=O)c2ccc(F)cc2)c1=O)c1c(F)cccc1F [Compound 11-477]", 60),
    ("CC(C)N(C(=O)n1cnn(S(=O)(=O)c2ccc(F)cc2)c1=O)c1ccc(Br)cc1Cl [Compound 11-486]", 70),
    ("CC(C)N(C(=O)n1cnn(S(=O)(=O)C2CC2)c1=O)c1c(F)cccc1F [Compound 11-191]", 90),
    ("Cc1ccc(N(C(=O)n2cnn(S(=O)(=O)CCl)c2=O)C(C)C)c(F)c1 [Compound 11-123]", 80),
    ("Cc1ccc(N(C(=O)n2cnn(S(=O)(=O)C3CC3)c2=O)C(C)C)c(F)c1 [Compound 11-212]", 80),
    ("CC(C)N(C(=O)n1cnn(S(=O)(=O)C2CC2)c1=O)c1cccc(F)c1 [Compound 11-161]", 80),
    ("Cc1ccc(S(=O)(=O)n2ncn(C(=O)N(c3c(F)cccc3F)C(C)C)c2=O)cc1 [Compound 11-639]", 70),
    ("CC(C)N(C(=O)n1cnn(S(=O)(=O)C(C)C)c1=O)c1ccc(F)cc1F [Compound 11-59]", 80),
    ("CCc1ccc(S(=O)(=O)n2ncn(C(=O)N(c3ccc(F)cc3F)C(C)C)c2=O)cc1 [Compound 11-666]", 90),
    ("Cc1cc(C)c(S(=O)(=O)n2ncn(C(=O)N(c3ccc(F)cc3Cl)C(C)C)c2=O)c(C)c1 [Compound 11-870]", 80),
    ("CC(C)N(C(=O)n1cnn(S(=O)(=O)c2ccc(C(C)(C)C)cc2)c1=O)c1cccc(F)c1F [Compound 11-681]", 90),
    ("CC(C)N(C(=O)n1cnn(S(=O)(=O)c2ccc(C(C)(C)C)cc2)c1=O)c1ccc(Cl)cn1 [Compound 11-706]", 80),
    ("CC(C)N(C(=O)n1cnn(S(=O)(=O)C2CC2)c1=O)c1ccc(Cl)cc1Br [Compound 11-210]", 80),
    ("CC(C)N(Cc1ccc(F)cc1F)C(=O)n1cnn(S(=O)(=O)N(C)C)c1=O [Compound 11-1088]", 80),
    ("CC(C)N(C(=O)n1cnn(S(=O)(=O)c2cccc(F)c2)c1=O)c1cccc(F)c1F [Compound 11-437]", 100),
    ("COc1ccc(S(=O)(=O)n2ncn(C(=O)N(c3cccc(F)c3F)C(C)C)c2=O)cc1 [Compound 11-1149]", 80),
]
